- Test system: waterhemp (common waterhemp, Amaranthus rudis)
- assay_notes: Test D pre-/postemergence plant response
- Assay type: in vivo
- condition_summary: Postemergence, 31 g ai/ha; scale 0 to 100 (0 no effect, 100 complete control)
property_measured: Waterhemp plant response rating

>>> print(df.to_string())
                            compound_string  val
0          Cc1cc(-c2ccccc2Oc2ncc(Cl)cn2)no1   10
1  FC(F)c1cc(-c2c(Cl)cccc2Oc2ncc(Br)cn2)on1   95
2  Fc1ccc(Oc2ncc(Cl)cn2)c(-c2cc(C(F)(Cl)Cl)on2)c1   85
3      FCc1cc(-c2c(F)cccc2Oc2ncc(Cl)cn2)no1   55
4  Fc1cccc(Oc2ncc(Cl)cn2)c1-c1cc(C(F)(F)F)no1   95
5  FC(F)Oc1cccc(Oc2ncc(Cl)cn2)c1-c1cc(C(F)F)on1   90
6  N#Cc1cccc(Oc2ncc(Cl)cn2)c1-c1cc(C(F)(F)F)on1   75
7   CC(F)(F)c1cc(-c2ccccc2Oc2ncc(Br)cn2)no1   80
